Can you tell me Encapsulation efficiency (EE) % for the items I'm about to list?
Assay: mRNA encapsulation efficiency of lipid nanoparticles (RiboGreen assay)
Format: physicochemical
Details: hEPO mRNA LNP, Process A, Cationic Lipid:DMG-PEG2000:Cholesterol:DOPE 40:1.5:28.5:30 mol %, N/P 4
Provide the reading as a plain figure in %.

Prompt line: Could you tell me which Encapsulation efficiency (EE) % is on file for CCCCCCCCCCC(O)CN(CCCC(=O)O[C@H]1CO[C@H]2[C@@H]1OC[C@H]2OC(=O)CCCN(CC(O)CCCCCCCCCC)CC(O)CCCCCCCCCC)CC(O)CCCCCCCCCC (stereo in doubt) [Compound 3] ?
Response line: 86

Prompt line: Could you tell me which Encapsulation efficiency (EE) % is on file for CCCCCCCCCCCCCCCCC(O)CN(CCCCC(=O)O[C@@H]1CO[C@H]2[C@@H]1OC[C@H]2OC(=O)CCCCN(CC(O)CCCCCCCCCCCCCCCC)CC(O)CCCCCCCCCCCCCCCC)CC(O)CCCCCCCCCCCCCCCC (some centres unmarked) [Compound 31] ?
Response line: 97

Prompt line: Could you tell me which Encapsulation efficiency (EE) % is on file for CCCCCCCCCCC(O)CN(CCCCOC(=O)O[C@@H]1CO[C@H]2[C@@H]1OC[C@H]2OC(=O)OCCCCN(CC(O)CCCCCCCCCC)CC(O)CCCCCCCCCC)CC(O)CCCCCCCCCC (some centres unmarked) [Compound 38] ?
Response line: 72

Prompt line: Could you tell me which Encapsulation efficiency (EE) % is on file for CCCCCC/C=C\COC(=O)CCCCCC(O)CN(CCCC(=O)O[C@@H]1CO[C@H]2[C@@H]1OC[C@H]2OC(=O)CCCN(CC(O)CCCCCCCCCC)CC(O)CCCCCCCCCC)CC(O)CCCCCC(=O)OC/C=C\CCCCCC (some centres unmarked) [Compound 15] ?
Response line: 91

Prompt line: Could you tell me which Encapsulation efficiency (EE) % is on file for CCCCCC/C=C\COC(=O)CCCCCC(O)CN(CCCC(=O)O[C@@H]1CO[C@H]2[C@@H]1OC[C@H]2OC(=O)CCCN(CC(O)CCCCCC(=O)OC/C=C\CCCCCC)CC(O)CCCCCC(=O)OC/C=C\CCCCCC)CC(O)CCCCCC(=O)OC/C=C\CCCCCC (some centres unmarked) [Compound 16] ?
Response line: 77

Prompt line: Could you tell me which Encapsulation efficiency (EE) % is on file for CCCCCCCCCCCCCCCCC(O)CN(CCCC(=O)O[C@H]1CO[C@H]2[C@@H]1OC[C@H]2OC(=O)CCCN(CC(O)CCCCCCCCCCCCCCCC)CC(O)CCCCCCCCCCCCCCCC)CC(O)CCCCCCCCCCCCCCCC (some centres unmarked) [Compound 30] ?
Response line: 94

Prompt line: Could you tell me which Encapsulation efficiency (EE) % is on file for CCCCCCCCCCCOC(=O)CCCC(O)CN(CCCC(=O)O[C@@H]1CO[C@H]2[C@@H]1OC[C@H]2OC(=O)CCCN(CC(O)CCCCCC(=O)OC(CCCCCCCC)CCCCCCCC)CC(O)CCCC(=O)OCCCCCCCCCCC)CC(O)CCCCCC(=O)OC(CCCCCCCC)CCCCCCCC (some centres unmarked) [Compound 11] ?
Response line: 94

Prompt line: Could you tell me which Encapsulation efficiency (EE) % is on file for CCCCCCCCCCCOC(=O)CCCC(O)CN(CCCC(=O)O[C@H]1CO[C@H]2[C@@H]1OC[C@H]2OC(=O)CCCN(CC(O)CCCCCC(=O)OC(CCCCCCCC)CCCCCCCC)CC(O)CCCC(=O)OCCCCCCCCCCC)CC(O)CCCCCC(=O)OC(CCCCCCCC)CCCCCCCC (some centres unmarked) [Compound 33] ?
Response line: 99

These measurements were taken from patent US20260224486A1.
